- TARGET_UNDER_TEST: Parkin ligase (Homo sapiens, UniProt O60260)
- Sequence (O60260 whole entry): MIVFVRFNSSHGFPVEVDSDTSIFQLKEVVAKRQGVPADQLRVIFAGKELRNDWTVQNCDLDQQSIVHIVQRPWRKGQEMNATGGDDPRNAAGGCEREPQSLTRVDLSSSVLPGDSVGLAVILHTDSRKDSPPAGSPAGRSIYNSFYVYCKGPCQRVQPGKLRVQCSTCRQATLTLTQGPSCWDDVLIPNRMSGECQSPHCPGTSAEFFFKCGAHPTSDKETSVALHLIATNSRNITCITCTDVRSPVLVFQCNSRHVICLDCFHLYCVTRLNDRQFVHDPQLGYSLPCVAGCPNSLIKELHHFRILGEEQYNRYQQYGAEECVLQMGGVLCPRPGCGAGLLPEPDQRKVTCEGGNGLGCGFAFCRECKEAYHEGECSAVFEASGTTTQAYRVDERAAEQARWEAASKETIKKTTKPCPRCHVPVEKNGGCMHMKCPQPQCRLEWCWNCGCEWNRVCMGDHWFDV
- ASSAY_REMARKS: Activity-Based Probe Assay using Ubiquitin vinyl sulfone probe (TR-FRET)
- Assay type: biochemical
- MEASUREMENT_CONDITIONS: heat activated Parkin, HA-Ub-VS probe, activation EC50; read-out: Probe Assay EC50 (μM) [Example 2]
Overview of reported EC50 across a group of compounds:
Lab book: enter the figure in µM, no units written.

Solved entries (count: 5):
                         structure_notation  measured_endpoint  unit_text  endpoint_result
0  Cc1ccccc1C(=O)Nc1nc(NC(=O)c2cccnc2)nn1-c1ccc(C(F)(F)F)cc1               EC50         µM                4
1  C#Cc1ccc(C(=O)Nc2nc(NC(=O)c3cccc(N=[N+]=[N-])c3)n(-c3ccccc3)n2)cc1               EC50         µM                4
2  Cc1ccccc1C(=O)Nc1nc(-c2cccc(F)n2)nn1-c1ccc(C(F)(F)F)cc1               EC50         µM                2
3  O=C(Nc1nc(NC(=O)c2ccccn2)n(-c2ccccc2)n1)c1ccccn1               EC50         µM                2
4  Cc1ccccc1C(=O)Nc1nc(NC(=O)c2cccc(N=[N+]=[N-])c2)nn1-c1ccccc1               EC50         µM                8

Ask: Recorded EC50 for Cc1ccccc1C(=O)Nc1nc(NCCc2ccccn2)nn1-c1ccccc1 , please?
Result: 14

Ask: Recorded EC50 for Cc1ccccc1C(=O)Nc1nc(-c2ncccc2C)nn1-c1ccc(OC(F)(F)F)cc1 , please?
Result: 0.9

Ask: Recorded EC50 for O=C(Nc1nc(NC(=O)c2ccncc2)n(-c2ccc(Cl)cc2)n1)c1ccncc1 , please?
Result: 2

====

- TARGET_UNDER_TEST: UniProtKB O60260
- ASSAY_REMARKS: Activity-Based Probe Assay using Ubiquitin vinyl sulfone probe (TR-FRET)
- Assay type: biochemical
- MEASUREMENT_CONDITIONS: heat activated Parkin, HA-Ub-VS probe, activation EC50; read-out: Probe Assay EC50 (μM) [Example 2]
Overview of reported EC50 across a group of compounds:

Solved entries (count: 2):
                                   compound  measured_endpoint  endpoint_result
0  Cc1ccccc1C(=O)Nc1nc(NCCc2ccccc2)nn1-c1ccc(OC(F)(F)F)cc1 [Compound 106]               EC50         > 100 µM
1  c1ccc(CNc2nc(NCc3ccccc3)n(-c3ccccc3)n2)cc1 [Compound 138]               EC50         > 100 µM

Kindly review the next compound as well.
Ask: Look up EC50 with UniProtKB O60260 for this compound: O=C(Nc1ccccc1)c1nc(C(=O)Nc2ccccc2)n(-c2ccccc2)n1 [Compound 90]
Result: > 100 µM
